Taken from ChEMBL document CHEMBL1201862.

system: NCI-H522; experiment: NCI tumour cell line growth inhibition, 48 h
Calls of active or inactive are those of the source. No stated cut-off is given here; in the data, active = GI50 up to about 1.1 µM and inactive = higher.
Mark one answer only. Choices: yes (1) = active, no (0) = inactive

Recorded test call requested for CCOc1ccc(N2C(=O)C3c4[nH]c5ccccc5c4C4CCC(C(C)(C)C)CC4C3C2=O)cc1 (configuration not stated)
no (0)

Could you please tell me the result logged for COc1ccc(N2CCN(Cc3c(C(C)=O)[n+]([O-])c4ccccc4[n+]3[O-])CC2)cc1 in this assay?
no (0)

Outcome? O=C(/C=C/c1cccc(Br)c1)c1ccc(Cl)cc1
no (0)

Hi, sorry to bother you, what did the test record for O=S(O)CCCSSCCCCSSCCCS(=O)O ?
no (0)

Fill in: this test's call for COc1cc(/C=C2\CCc3ccccc3C2=O)cc(OC)c1OC is ___
no (0)

What is the recorded call for this compound in the test? CN(C)CCCN1N=Nc2cccc3cccc1c23
no (0)

For NC(CSS(=O)(=O)c1ccccc1)C(=O)O (configuration not stated) , which call appears in the assay record?
no (0)

Any idea what this test logged for CCC1(O)C(=O)OCc2c1cc1n(c2=O)Cc2cc3c(N)cccc3nc2-1 (configuration not stated) ?
yes (1)

What classification did N#CC(Cc1ccccc1Br)N(CCC1=CCCCC1)C(c1ccccc1)c1ccccc1 (configuration not stated) end up with in this test?
no (0)

State the result this test recorded for C/C(CC(=O)Nc1cc(C)ccc1C)=N/N=C(N)N .
no (0)

What is the recorded call for this compound in the test? CC(C)(C)[Si](C)(C)OCC1OC(n2ccc(N)nc2=O)C(O[Si](C)(C)C(C)(C)C)C1O[Si](C)(C)C(C)(C)C (configuration not stated)
no (0)

Entry Cc1cc(C)c2c(c1)C/C(=C\c1cccc(C)c1C(=O)O)C2=O : call = ?
no (0)

====

system: M14; assay: NCI tumour cell line growth inhibition, 48 h
The source made the active and inactive calls. No stated cut-off is given here; in the data, active = GI50 up to about 1.1 µM and inactive = higher.
Choose one outcome from this list and give only that: Y for active, N for inactive

Look up the recorded call for COc1nc2c(c(=O)n1C)N=C(c1ccccc1)[C@H](C(CC(=O)c1ccccc1)c1ccccc1)C(c1ccccc1)N2 (some centres undefined) in this test.
N

Would you mind telling me which call this test gave O=C(NC1CCCCC1)NS(=O)(=O)c1ccc2c(c1)CCC2 [GLYHEXAMIDE] ?
N

Recorded test call requested for N#Cc1cccc2c1Sc1ccccc1N2
N

Given CC(=O)OCC1OC(n2c3c(c(-c4ccco4)c(C#N)c2=S)CCC3)C(OC(C)=O)C(OC(C)=O)C1OC(C)=O (centres undefined) , state the outcome it received in this test.
N

Can you look up the reported call for COc1cc2cc(C(=O)N3C[C@H](CCl)c4c3cc(O)c3ccccc43)[nH]c2c(OC)c1OC for me?
Y

Check the results log: what was the call for O=c1[nH]c(=O)n(C2CC(O)C(CO)O2)cc1C(OCC(F)(F)F)OCC(F)(F)F (centres undefined) ?
N

What outcome does the record of this test show for O=C1C=C/C(=N\N=C(c2ccccc2)c2ccccc2)O1 ?
N

What did this assay record as the result for O=C(O)CCC1(C(=O)O)CCC(=O)c2ccccc21 (centres undefined) ?
N

# lookup: test call for O=C(OCC(Cl)(Cl)Cl)N1CC[C@H](C2CCCCC2)C1
N

====

test system: SF-295; test: NCI tumour cell line growth inhibition, 48 h
Calls of active or inactive are those of the source. No stated cut-off is given here; in the data, active = GI50 up to about 1.1 µM and inactive = higher.
quantity: GI50

# GI50 lookup, item CN(C)CCNC(=O)c1cccc2ccc(-c3ccc(F)cc3)nc12
5.7 µM (inactive)

// lookup GI50 for Cc1[nH]c2c(C)cccc2c1C1Cc2ccccc2N1 (stereo unspecified)
19.8 µM (inactive)

Give the measured GI50 of CCCCC[C@@H]1OC(=O)[C@@]2(CC3c4ccccc4C2c2ccccc23)[C@H]1C(=O)OC .
71 µM (inactive)

Requested read-out: GI50. Entry: COc1cc(O)c(C(=O)CC(C)=O)c(OC)c1
> 100 µM (inactive)

Recorded GI50 of Cc1csc2c(=O)n(COCc3ccccc3)c(=O)[nH]c12 , please.
> 100 µM (inactive)

Which GI50 is listed for O=C(c1ccccc1Br)C(F)(F)F ?
> 100 µM (inactive)

// GI50 lookup, key: CC(=O)Nn1c(Cc2ccc(Cl)cc2)nn(C)c1=O
> 100 µM (inactive)

# query: GI50 of entry COC(=O)c1cc2c(cc1C(=O)OC)[C@@]1(C)CCCC(C)(C)C1CC2 (stereo partly specified)
16.3 µM (inactive)

Param item = Cc1cc(C)c2c(c1)C/C(=C\c1cccc(C)c1C(=O)O)C2=O ; retrieve measured GI50.
78 µM (inactive)

Would you mind telling me what GI50 value was observed for COc1cc2c(cc1Cl)[n+]([O-])c(C#N)c(N1CCN(c3ccc([N+](=O)[O-])cc3)CC1)[n+]2[O-] ?
12.4 µM (inactive)

What measured GI50 goes with O=C(CC(=O)c1ccncc1)c1ccccc1 ?
> 83.8 µM (inactive)

# lookup: GI50 of O=C(/C(Cl)=C/c1ccccc1)c1ccccc1
17.5 µM (inactive)

Need GI50 of O=[N+]([O-])/C(C(Cl)=C(Cl)Cl)=C1\NCCO1 , thanks.
> 100 µM (inactive)

May I ask what GI50 has been recorded for COc1c2c(c(CC=C(C)C)c3oc(=O)c(-c4ccc(O)cc4)c(O)c13)OC(C)(C)C=C2 ?
28.2 µM (inactive)

Give the measured GI50 of CN1C(=O)c2cccc3cc([N+](=O)[O-])cc(c23)C1=O .
> 10 µM (inactive)

Recorded GI50 of CC(=O)Oc1ccccc1C(=O)Nc1ncc([N+](=O)[O-])s1 [NITAZOXANIDE] , please.
9.91 µM (inactive)

====

tested on: SR; experiment: NCI tumour cell line growth inhibition, 48 h
Calls of active or inactive are those of the source. Rule as the data show it: active = GI50 up to about 1.1 µM and inactive = higher.
Give measured GI50 for each item. Keep answers brief.

Which measured GI50 value corresponds to C[C@@H]1[C@@H](c2ccccc2)O[B-](c2ccccc2)(c2ccccc2)[N+]1(C)C ?
53 µM (inactive)

What GI50 value was documented for this compound, CCCCCNC1=CC(=O)c2ccccc2C1=O ?
46.6 µM (inactive)

Look up GI50 for this compound: CCOC(=O)[C@@H](NC(=O)OC(C)(C)C)[C@@H](O)C(=O)OCC
> 100 µM (inactive)

So what does the record say about GI50 for N#C/N=N/c1cc(Cl)c(/N=N/C#N)cc1Cl ?
34.8 µM (inactive)

Give its GI50 value. Item: O=c1[nH]c(=O)n(C2CC(O)C(CO)O2)cc1OCC1CCCCC1 (stereo not drawn)
> 100 µM (inactive)

// GI50 lookup, key: C/C=C/C(C/C=C(\C)CO[Si](C)(C)C(C)(C)C)O[Si](C)(C)C(C)(C)C (stereo not drawn)
> 100 µM (inactive)

Please look up its GI50: COC(=O)c1scc(N)c1-n1ccc(=O)[nH]c1=O
> 100 µM (inactive)

Given the compound CCOC(=O)NC(NNc1ccc([N+](=O)[O-])cc1[N+](=O)[O-])(C(F)(F)F)C(F)(F)F , what is its reported GI50?
5.79 µM (inactive)

====

test system: T47D; assay: NCI tumour cell line growth inhibition, 48 h
The source made the active and inactive calls. No stated cut-off is given here; in the data, active = GI50 up to about 1.1 µM and inactive = higher.
quantity: GI50

Looking for the measured GI50 of COc1cc2c(cc1OC)C(=O)N(c1ccc(O)cc1)C2 , can you help?
> 100 µM (inactive)

Need GI50 of CC(C)(C)COC(=O)C(C)(C)NC(=O)C(CC(=O)OCc1ccccc1)NC(=O)OCc1ccccc1 (stereo not drawn) , thanks.
20.2 µM (inactive)

So what does the record say about GI50 for O=C(NNC(=S)NC1CCCCC1)c1csc(NC(=S)NC2CCCCC2)n1 ?
13.1 µM (inactive)

====

system: LOX IMVI; test: NCI tumour cell line growth inhibition, 48 h
Calls of active or inactive are those of the source. No stated cut-off is given here; in the data, active = GI50 up to about 1.1 µM and inactive = higher.
Record form. Attribute: GI50. Fill in for each entry.

Need GI50 of C(=N\c1ccc(-c2nc3ccccc3s2)cc1)/c1cccs1 , thanks.
46.1 µM (inactive)

If you can, please state the reported GI50 value of O=S(=O)(N1CCCCN(S(=O)(=O)C(F)(F)F)CCCN(S(=O)(=O)C(F)(F)F)CCCN(S(=O)(=O)C(F)(F)F)CCCCN(S(=O)(=O)C(F)(F)F)CCCN(S(=O)(=O)C(F)(F)F)CCC1)C(F)(F)F .
80.5 µM (inactive)

Which GI50 reading was recorded for the compound O=C1C=C/C(=N\N=C(c2ccccc2)c2ccccc2)O1 ?
> 10 µM (inactive)

Entry CCOC(=O)NC(NNc1ccc([N+](=O)[O-])cc1[N+](=O)[O-])(C(F)(F)F)C(F)(F)F : reported GI50 = ?
60.1 µM (inactive)

Need GI50 of ClCC1(CCl)COC1 , thanks.
> 100 µM (inactive)

Which GI50 value belongs to COc1ccc(NC(=O)c2oc3cc(O)ccc3c(=O)c2C)c([N+](=O)[O-])c1 ?
> 100 µM (inactive)

What does the data say about its GI50? Entry: CN(/N=C1\C(=O)Nc2ccccc21)c1ccccc1
> 100 µM (inactive)

Requested field: GI50. Item: O=c1[nH]c2cc([N+](=O)[O-])ccc2nc1/C(=N/Nc1ccccc1)C(O)c1ccccc1Cl (centres undefined)
> 100 µM (inactive)

Requested read-out: GI50. Entry: COC(OC)[C@@H](C)[C@H](O)[C@](C)(O)C1OC(C)(C)OC(C(C)C=C(C)C)C1C (some centres undefined)
> 100 µM (inactive)
